# measured_target: hCB2 (Homo sapiens, UniProt P34972)
# Sequence (P34972 whole entry): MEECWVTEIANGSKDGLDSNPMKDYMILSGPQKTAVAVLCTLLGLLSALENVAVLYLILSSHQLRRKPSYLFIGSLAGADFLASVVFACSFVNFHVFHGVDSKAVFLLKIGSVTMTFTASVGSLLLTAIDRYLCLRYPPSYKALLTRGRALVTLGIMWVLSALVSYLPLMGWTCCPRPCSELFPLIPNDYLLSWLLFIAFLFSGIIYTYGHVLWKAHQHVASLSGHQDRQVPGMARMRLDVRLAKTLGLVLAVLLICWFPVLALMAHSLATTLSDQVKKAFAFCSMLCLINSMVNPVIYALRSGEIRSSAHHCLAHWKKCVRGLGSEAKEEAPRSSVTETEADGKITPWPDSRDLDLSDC
# assay_details: bioSensAll ebBRET signaling profiling, hCB2
# Format: cell-based
# Parameters: host or cells: HEK293SL cells, transient PEI transfection
# experimental_parameters: read-out: EC50 [95% CI]; hCB2 GoB
measurement_kind: pEC50
By convention, pEC50 is the negative base-10 log of a molar concentration.

// fetch pEC50 given entry COC(=O)C(C)(NC(=O)c1cc(C)n(-c2cccc(C(F)(F)F)c2)n1)c1cccs1 (centres unmarked) [‘4042]
8.60

// fetch pEC50 given entry COC(=O)[C@@](C)(NC(=O)c1cc(C)n(-c2cccc(C(F)(F)F)c2)n1)c1cccs1 [‘1350]
8.59
